What melting point was measured for each of the following?

Example cases with answers are listed next.
> print(dat)
                                   compound  observed.measurement
1  COC(=O)C(O)C(CC(C)C)NC(=O)C(CC(C)C)NC(=O)C(CC(=O)N1CCOCC1)Cc1cccc2ccccc12 (mixture of isomers)           69 to 70 °C
2  COC(=O)C1CN(C(=O)c2ccc(OC(F)(F)F)cc2)c2cc(Cl)ccc2CN1S(=O)(=O)c1ccc(OC)cc1 (centres undefined)         149 to 151 °C
3  CC(C)(C)C(=O)ON=C(N)CN1C(=O)C2(COc3cc4c(cc32)OCO4)c2ccccc21 (centres undefined)         183 to 185 °C
4  CCC(=O)Oc1c(OC)c(OC)c(OC(C)=O)c2ccc(Cl)cc12           86 to 87 °C
5  O=C1Nc2cccc(Cl)c2C1(O)c1cc2c(cc1O)OCO2 (centres undefined)         250 to 253 °C

I need melting point for every entry listed below, if you could help.
1. CC1(C(=O)C(C(O)C(Cl)(Cl)Cl)n2cncn2)CC1 (centres undefined)
2. C=C1CCC2C3Cc4ccc(O)cc4C2(CCN3CC2CC2)C1 (centres undefined)

["216 to 218 °C", "220 to 223 °C"]

I need melting point for every entry listed below, if you could help.
1. N#Cc1ccc(-c2cn(-c3ccc(C#N)cc3)c(C(O)c3ccccc3)n2)cc1 (centres undefined)
2. O=C(c1ccccn1)c1cnn2c(-c3cccnc3)ccnc12

217 to 222 °C
216 to 218 °C

====

MEASURE: melting point

Example cases with answers are listed next.
> print(dat)
                                   compound  observed.measurement
1  O=c1[nH]c2cc([N+](=O)[O-])cnc2n1-c1ccccc1F         234 to 236 °C
2  CCN(CCO)C(=O)c1ccc(C(=O)N2CCN(c3ncccc3NC(C)C)CC2)cc1                115 °C
3  COc1ccc(Nc2nccc3ccn(S(=O)(=O)c4ccc(OC)cc4)c23)cc1         156 to 158 °C

I need melting point for every entry listed below, if you could help.
1. COC(=O)c1nc2cc(Cl)c3cccnc3c2o1
2. CC1=C(/C=C/C(C)=C/C=C/C(C)=C\C(=O)O)C(C)(C)C(O)CC1 (stereo not given)

["214 to 215 °C", "152 to 154 °C"]

====

What melting point was measured for each of the following?

Example cases with answers are listed next.
> print(dat)
                                   compound        measure  observed.measurement
1  Cc1cc(C)c2c(c1C)OC(C)(CC#N)C2 (stereo not given)  melting point           58 to 59 °C
2  CCCOc1ccc(-c2cccc3nc(N)c4ncn(CC(C)C)c4c23)cc1  melting point         181 to 182 °C
3               O=c1cc(-c2ccccc2)oc2ncccc12  melting point         103 to 105 °C

I need melting point for every entry listed below, if you could help.
1. CC(C)(C)OC(=O)CC(Cc1ccccc1)NC(=O)C1Cc2ccccc2N1S(=O)(=O)c1ccc(-c2cccc(C(F)(F)F)c2)cc1 (stereo not given)
2. Cc1ccc(S(=O)(=O)NC(=O)Nc2cc(C)c(S(=O)(=O)C[N+](=O)[O-])c(C)c2)cc1

1. 50 °C
2. 150 to 155 °C
